test system: A498 renal; experiment: NCI tumour cell line growth inhibition, 48 h
value.kind: TGI

INSERT INTO measurements (compound, readout_value) VALUES
  ('CCN1CCCn2c(=O)[nH]c3cc(Br)cc1c32', '> 100 µM'),
  ('COC(=O)[C@@H]1C=C[C@H](NC(C)=O)C1', '> 100 µM'),
  ('Cc1c(Cl)cccc1NC(=O)/C(Cl)=C(\Cl)C(=O)O', '> 100 µM'),
  ('O=C(Nc1ccc(Br)cc1)Nc1nn(C(=O)Nc2ccc(Br)cc2)c2ccccc12', '> 81 µM');

Need TGI of `O=C(O)c1cccc(/C=C/c2ccccc2)c1` , thanks. > 100 µM

Consider next the compound COc1ccc(NC(=O)CC(=O)N2N=C(N(c3ccccc3)c3ccccc3)CC2c2ccccc2)cc1 (stereo not drawn) in the same way. > 100 µM

And the next one, `COc1cc2oc(=O)cc(C)c2cc1OC` ? > 100 µM

Next entry: `CCOC(=O)C1=C(Nc2ccc(Cl)c(Cl)c2)OC/C1=N\NC(=O)Cc1ccccc1` > 100 µM

Lookup `CCCCCCCCCCCCCC(=O)NCC(OCC)OCC` > 100 µM

* * *

Here the recorded TGI is given for each entry.
tested on: OVCAR-3 ovarian; experiment: NCI tumour cell line growth inhibition, 48 h

Here are 2 compounds together with their reported answers.
INSERT INTO assay_data (cpd_smiles, readout_value) VALUES
  ('C/C=C(/C)c1cnc(CC(C)C)c(=O)[nH]1', '> 100 µM'),
  ('Clc1ccc(-c2c(C3=NCCN3)nnn2-c2ccccc2)cc1', '> 100 µM');

Shifting focus to the compound that follows.
Suppose we examine the compound `Cc1ccc(NC2=N/C(=C/c3ccco3)C(Cl)=N2)cc1` ; what TGI value has been reported? > 100 µM

* * *

tested on: UACC-257 melanoma; assay: NCI tumour cell line growth inhibition, 48 h
value.kind: TGI

Consider the reported TGI for these molecules:
INSERT INTO measurements (molecule, readout_value) VALUES
  ('C/C(=C(/c1ccc(O)cc1)c1ccc(Cl)cc1)c1ccccc1', '2.77 µM'),
  ('CCN(CC)C1Oc2cc3c(cc2C(c2cc(OC)c(OC)c(OC)c2)C1C)OCO3 (centres undefined)', '> 100 µM'),
  ('C/C(=N/NC(=S)N1CCN(C(=S)N/N=C(/C)c2ccccn2)CC1)c1ccccn1', '> 100 µM'),
  ('C[C@]12CCC(=O)C=C1CC[C@@H]1[C@@H]2[C@@H](O)C[C@@]2(C)[C@H]1CC[C@]2(O)C(=O)COC(=O)CCC1CCCC1', '> 100 µM'),
  ('Oc1c(CN2CCCC2)cc(CSCc2ccccc2)c2cccnc12', '7.03 µM');

UACC-257 melanoma / TGI / C=C(CCOC)CCC1CCCCC(=C)[C@H]1O (some centres undefined) : value? > 100 µM

Moving on to the next molecule: `C/C=C(/C)c1cnc(CC(C)C)c(=O)[nH]1` > 100 µM

Quick one: `N#C/C(C(=O)Nc1ccccc1)=C(/N)N1CCCCC1` > 100 µM

One more molecule: `O=c1oc2cccnc2n1CCCCN1CCN(c2ccccc2)CC1` > 100 µM

And NC(=S)N/N=C1\CCCC1C(O)(C(F)(F)Cl)C(F)(F)Cl (centres undefined) ? > 10 µM

Entry to check: COC(=O)C1CC23C=CCN4CC(C2C)C2(c5ccccc5NC12)C43 (centres undefined) > 100 µM

Query CN1C(=O)C2C=CC1C1CCC2N(C)C1=O (centres undefined) next > 100 µM

* * *

TGI values by entry
system: HCC-2998 colon; assay: NCI tumour cell line growth inhibition, 48 h

Observe how each entry below is paired with its result.
INSERT INTO assay_data (compound, target_under_test, readout_value) VALUES
  ('O=C(O)CCSC1=NCCN1', 'HCC-2998 colon', '> 100 µM'),
  ('COC(=O)[C@@]1(C)CCC[C@]2(C(=O)O)C3Cc4occc4[C@H](C)[C@@H]3CCC21 (some centres undefined)', 'HCC-2998 colon', '> 100 µM'),
  ('CC1(C)C(=O)C=CC2(C)C1CC(O)C1(C)C2CCC2(C)C(c3ccoc3)OC(=O)C3OC321 (centres undefined)', 'HCC-2998 colon', '26.2 µM');

# query: TGI of entry CCOC(=O)CCC(NC(=O)OCc1ccccc1)C(=O)NC(CCC(=O)OCC)C(=O)NC(CCC(=O)OCC)C(=O)NNC(=O)OC(C)(C)C (centres undefined) > 100 µM

* * *

test system: SF-539 CNS; assay: NCI tumour cell line growth inhibition, 48 h
value.kind: TGI

Field: example entries. Status: answers known.
INSERT INTO results (molecule, value_kind, readout_value) VALUES
  ('COC(=O)[C@@]1(C)CCC[C@]2(C(=O)O)C3Cc4occc4[C@H](C)[C@@H]3CCC21 (stereo partly specified)', 'TGI', '> 100 µM'),
  ('NC(=O)c1csc(C2CCC(CO)O2)n1 (stereo unspecified)', 'TGI', '> 100 µM'),
  ('CC1=CC[C@](C)(O)[C@@]2(C)CC[C@H]3C(=C(C)C)C(=O)C[C@]3(C)C[C@H]12', 'TGI', '> 50 µM'),
  ('O=C1c2ccccc2C(=O)c2nn(N=P(CP(=Nn3nc4c(n3)C(=O)c3ccccc3C4=O)(c3ccccc3)c3ccccc3)(c3ccccc3)c3ccccc3)nc21', 'TGI', '> 100 µM');

Can you look up the measured TGI of `C[C@]12CC[C@H]3[C@@H](CCC4=C(Br)C(=O)C=C[C@@]43O)[C@@H]1CCC2=O` for me? > 100 µM

Then this molecule: CC(C(=O)O)c1ccc(-c2ccccc2)c(F)c1 (stereo unspecified) > 100 µM

* * *

system: RXF 393 renal; experiment: NCI tumour cell line growth inhibition, 48 h
As shown below, each of these compounds has a reported TGI value.

INSERT INTO assay_data (compound, value_kind, readout_value) VALUES
  ('O=C1c2ccccc2C(=O)c2nn(N=P(CP(=Nn3nc4c(n3)C(=O)c3ccccc3C4=O)(c3ccccc3)c3ccccc3)(c3ccccc3)c3ccccc3)nc21', 'TGI', '> 100 µM');

State its TGI on RXF 393 renal: NC(=S)N/N=C1\CCCC1C(O)(C(F)(F)Cl)C(F)(F)Cl (stereo unspecified) > 10 µM

Try this compound next: O=c1c(O)cccn1C1OC(CO)C(O)C1O (stereo unspecified) > 100 µM

Here is the next compound: `CC(C)(C)n1cc(-c2ccnc(NCCCNS(=O)(=O)c3ccc(Br)cc3)c2)c(-c2cccc(O)c2)n1` 2.87 µM

// next record `N#C/C(=C1/c2cc([N+](=O)[O-])ccc2-c2c1cc([N+](=O)[O-])cc2[N+](=O)[O-])N1CCCCC1` > 100 µM

What about CC1CN=C(c2ccc(-c3nc(-c4ccc(C5=NCC(C)N5)cc4)nc(N(C)C)n3)cc2)N1 (stereo unspecified) ? 12.8 µM

Try `CC(C)(C)C(=O)N1CCN(C=O)C1=S` next. 81.9 µM

Same again, this time with `CCCCCCNC(=O)n1cc(F)c(=O)[nH]c1=O` 20.3 µM

Same thing, different compound: CC1CN=C(c2ccc(CN3CCC(C4CCN(Cc5ccc(C6=NCC(C)N6)cc5)CC4)CC3)cc2)N1 (stereo unspecified) 33.5 µM

Quick one: CCN(CC)C1Oc2cc3c(cc2C(c2cc(OC)c(OC)c(OC)c2)C1C)OCO3 (stereo unspecified) > 44.1 µM

Can you handle `COc1ccc([C@@H](O)c2cc(-c3ncnc4cc(N5CCOCC5)ccc34)c(F)cc2Cl)nn1` next? 11.6 µM

Another: COc1cc(C2c3cc4c(cc3[C@@H](N(C)C)[C@H]3COC(=O)C23)OCO4)cc(OC)c1O (stereo partly specified) > 100 µM

Try this compound next: `Cn1c2ccc(C3=NCCN3)cc2c2cc(C3=NCCN3)ccc21` > 100 µM

Same thing, different compound: `CC1(C)C=[N+]([O-])C(C)(C)N1O` > 10 µM

What about this compound? `CC(=O)NC(=O)NC1=NCCC(=O)N1CCc1c[nH]c2ccccc12` > 100 µM

* * *

test system: MALME-3M melanoma; experiment: NCI tumour cell line growth inhibition, 48 h
TGI values for the molecules below.

These recorded examples may help you get a feel for the data.
INSERT INTO results (molecule, target_under_test, readout_value) VALUES
  ('COC(=O)C1CC23C=CCN4CC(C2C)C2(c5ccccc5NC12)C43 (stereo not given)', 'MALME-3M melanoma', '> 100 µM'),
  ('CN1C(=O)C2C=CC1C1CCC2N(C)C1=O (stereo not given)', 'MALME-3M melanoma', '> 100 µM'),
  ('CC1(C)C=[N+]([O-])C(C)(C)N1O', 'MALME-3M melanoma', '> 10 µM'),
  ('S=P(N1CCCC1)(N1CC1)N1CC1', 'MALME-3M melanoma', '> 100 µM');

Then this molecule:
Param readout= TGI; system= MALME-3M melanoma; entry= `Clc1ccc2c(c1)[nH]c1c2nc2sccn21` ; returns value. > 100 µM
